# Subject Of Test: Human immunodeficiency virus type 1 integrase (Human immunodeficiency virus 1, UniProt Q7ZJM1)
# Sequence (Q7ZJM1 whole entry): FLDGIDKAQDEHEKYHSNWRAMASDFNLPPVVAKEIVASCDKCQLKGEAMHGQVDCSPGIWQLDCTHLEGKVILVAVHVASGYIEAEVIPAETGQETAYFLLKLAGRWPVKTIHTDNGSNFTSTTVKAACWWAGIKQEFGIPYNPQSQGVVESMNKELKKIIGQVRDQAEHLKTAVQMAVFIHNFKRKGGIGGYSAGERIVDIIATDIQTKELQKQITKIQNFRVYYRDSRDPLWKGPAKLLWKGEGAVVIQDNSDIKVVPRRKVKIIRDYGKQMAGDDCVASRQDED
pIC50: −log10 of the molar value.
I would appreciate it if you labelled entries y when pIC50 is 7 or higher, otherwise n.

| Compound Structure | Class Name |
| --- | --- |
| O=c1c(O)c(-c2ncc(Cc3ccc(F)cc3)s2)nc2c(Br)cc(N3CCOCC3)cn12 | y |
| O=c1c(O)c(-c2ncc(Cc3ccc(F)cc3)o2)nc2ccc(N3CCOCC3)cn12 | y |
| O=c1c(O)c(-c2ncc(Cc3ccc(F)cc3)o2)nc2c(I)cc(N3CCOCC3)cn12 | n |

Now examine the next entry.
Entry O=C1OCCN1c1cc(N2CCOCC2)cn2c(=O)c(O)c(-c3ncc(Cc4ccc(F)cc4)[nH]3)nc12 : is its pIC50 no less than 7?
y
